# Test system: SK-OV-3
# ASSAY METHOD TEXT: NCI tumour cell line growth inhibition, 48 h
Activity calls are given as the source filed them. Rule as the data show it: active = GI50 up to about 1.1 µM and inactive = higher.
RESULT TYPE: GI50

Task: Query for SK-OV-3: what GI50 does the record show for CC1OC(=O)C2CC3CCCCC3C(/C=C/C3CCCC(C)N3C)C12 (stereo unspecified) ?
Result: > 100 µM (inactive)

Task: Param item: `O=C(NCO)NCOCn1c(=O)n(CO)c(=O)n(CO)c1=O`
Result: 99.8 µM (inactive)

Task: Param item: C[n+]1c2ccccc2c(NC(CCCNC(=N)N)C(=O)O)c2ccccc21 (stereo unspecified)
Result: > 100 µM (inactive)

Task: Param item: `COC(=O)c1cc(CC(C)C)c2c(c1)[nH]c1ccccc12`
Result: > 100 µM (inactive)

Task: Param item: `O=C(O)CC1(CC(=O)O)Nc2ccccc2SC1=O`
Result: > 100 µM (inactive)

Task: Param item: `Cc1ccc(S(=O)(=O)Oc2cc(-c3ccccc3)nc3ccccc23)cc1`
Result: 2.23 µM (inactive)

Task: Param item: C1=C(c2ccccc2)SC(N2CCCCC2)S1 (stereo unspecified)
Result: > 100 µM (inactive)

Task: Param item: `CCCCCCCCCCCC[S+](C)C`
Result: 8.49 µM (inactive)

Task: Param item: `O=C(CCc1nnc2s/c(=C\c3ccccc3Cl)c(=O)n12)Nc1cc(Cl)ccc1Cl`
Result: > 100 µM (inactive)

Task: Param item: `COC(=O)Cc1c(-c2[nH]c3ccccc3c2CC(=O)OC)[nH]c2ccccc12`
Result: > 58.1 µM (inactive)

Task: Param item: O=S(=O)(c1ccccc1)C1(CCC2OCCO2)C=CC2(CC1)OCCO2 (stereo unspecified)
Result: > 100 µM (inactive)
